Target: PI3Kδ (Homo sapiens, UniProt O00329)
Sequence (O00329 1-1044): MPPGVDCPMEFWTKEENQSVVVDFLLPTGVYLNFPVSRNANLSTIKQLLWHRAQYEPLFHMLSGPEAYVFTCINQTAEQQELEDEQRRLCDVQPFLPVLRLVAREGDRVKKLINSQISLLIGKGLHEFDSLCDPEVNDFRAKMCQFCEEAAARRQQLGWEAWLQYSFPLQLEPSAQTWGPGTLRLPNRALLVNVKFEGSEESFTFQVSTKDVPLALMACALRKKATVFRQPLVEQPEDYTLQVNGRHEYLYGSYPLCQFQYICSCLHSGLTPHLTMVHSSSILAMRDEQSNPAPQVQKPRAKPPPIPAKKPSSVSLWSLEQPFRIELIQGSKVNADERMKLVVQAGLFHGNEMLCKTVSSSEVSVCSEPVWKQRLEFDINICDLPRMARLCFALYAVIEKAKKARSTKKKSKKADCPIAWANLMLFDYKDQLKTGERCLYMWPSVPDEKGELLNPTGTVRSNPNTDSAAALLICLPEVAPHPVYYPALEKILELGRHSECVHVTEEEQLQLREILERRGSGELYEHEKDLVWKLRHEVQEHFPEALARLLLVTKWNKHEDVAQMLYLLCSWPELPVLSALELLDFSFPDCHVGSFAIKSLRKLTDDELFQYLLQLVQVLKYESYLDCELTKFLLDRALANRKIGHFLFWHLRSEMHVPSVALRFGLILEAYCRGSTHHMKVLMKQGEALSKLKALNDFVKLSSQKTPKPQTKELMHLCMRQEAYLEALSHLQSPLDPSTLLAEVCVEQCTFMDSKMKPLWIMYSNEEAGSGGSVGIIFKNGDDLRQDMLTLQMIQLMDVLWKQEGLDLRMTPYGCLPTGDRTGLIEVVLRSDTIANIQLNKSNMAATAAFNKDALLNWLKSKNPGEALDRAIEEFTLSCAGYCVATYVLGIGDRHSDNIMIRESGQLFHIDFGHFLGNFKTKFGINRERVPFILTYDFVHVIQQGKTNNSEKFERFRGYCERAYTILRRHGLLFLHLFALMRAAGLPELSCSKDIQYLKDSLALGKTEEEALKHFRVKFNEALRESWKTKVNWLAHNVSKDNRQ
EXPERIMENTAL_READOUT: Kd (µM)

Consider the reported Kd for these molecules:
[
  {
    "MOLECULE": "CC(C)NCCNC(=O)c1cc(C(C)Nc2cc(F)c(F)c(F)c2)c2nc(N3CCOCC3)cnc2c1 (single isomer, unassigned) [Compound 283a]",
    "TARGET_OF_ASSAY": "PI3Kδ (Homo sapiens, UniProt O00329)",
    "MEASURED_NUMBER": 1.55
  },
  {
    "MOLECULE": "CC(Nc1cccc(F)c1)c1cc(C(=O)NCC(=O)O)cc2ncc(N3CCOCC3)nc12 (single isomer, unassigned) [Compound 393a]",
    "TARGET_OF_ASSAY": "PI3Kδ (Homo sapiens, UniProt O00329)",
    "MEASURED_NUMBER": 1.23
  },
  {
    "MOLECULE": "C[C@@H]1CN(c2cnc3cc(C(=O)N(C)C)cc(C4CCCN4c4cc(F)cc(F)c4)c3n2)CCO1 (some centres unmarked) [Compound 3]",
    "TARGET_OF_ASSAY": "PI3Kδ (Homo sapiens, UniProt O00329)",
    "MEASURED_NUMBER": 0.02
  },
  {
    "MOLECULE": "Cc1ccc(NC(C)c2cc(C(=O)NCCN(C)C)cc3ncc(N4CCOCC4)nc23)cc1F (single isomer, unassigned) [Compound 407b]",
    "TARGET_OF_ASSAY": "PI3Kδ (Homo sapiens, UniProt O00329)",
    "MEASURED_NUMBER": 2.95
  },
  {
    "MOLECULE": "CC(O)c1cc(C2CCCN2c2cc(F)cc(F)c2)c2nc(N3CCOCC3)cnc2c1 (centres unmarked) [Compound 16]",
    "TARGET_OF_ASSAY": "PI3Kδ (Homo sapiens, UniProt O00329)",
    "MEASURED_NUMBER": 0.016
  }
]

(A) COc1cccc(NC(C)c2cc(C(=O)N3CCOCC3)cc3ncc(N4CCOCC4)nc23)c1 (centres unmarked) [Compound 121]
(B) CNCCOCCN(C)C(=O)c1cc(C(C)Nc2cc(F)c(F)c(F)c2)c2nc(N3CCOCC3)cnc2c1 (single isomer, unassigned) [Compound 315b]
(C) CN[C@H]1CCN(C(=O)c2cc(C(C)Nc3cc(F)c(F)c(F)c3)c3nc(N4CCOCC4)cnc3c2)C1 (single isomer, unassigned) [Compound 297b]
(D) CC(Nc1cc(F)cc(F)c1)c1cc(C(=O)NS(=O)(=O)C2CC2)cc2ncc(N3CCOCC3)nc12 (single isomer, unassigned) [Compound 219]
(E) CC(C)NCCNC(=O)c1cc(C(C)Nc2cccc(F)c2)c2nc(N3CCOCC3)cnc2c1 (single isomer, unassigned) [Compound 228]
Please produce an ascending ranking of these molecules based on Kd. Record the ranking as a list of labels in the requested order. C, B, D, A, E

(A) O=C(c1cc(C2CCCN2c2cc(F)cc(F)c2)c2nc(N3CCOCC3)cnc2c1)N1CCS(=O)(=O)CC1 (single isomer, unassigned) [Compound 43]
(B) O=C(O)c1cc(C2CCCN2c2cc(F)cc(F)c2)c2nc(N3CCOCC3)cnc2c1 (centres unmarked) [Compound 62]
(C) CC(Nc1ccc(F)c(F)c1)c1cc(C(=O)NCCCO)cc2ncc(N3CCOCC3)nc12 (single isomer, unassigned) [Compound 280b]
(D) O=C(c1cc(C2CCCN2c2cc(F)cc(F)c2)c2nc(N3CCOCC3)cnc2c1)N1CC(O)C1 (centres unmarked) [Compound 65]
Please produce an ascending ranking of these molecules based on Kd. Record the ranking as a list of labels in the requested order. D, B, A, C
(D: 0.017 µM, B: 0.051 µM, A: 7.24 µM, C: 21.4 µM)

The reported measurements were obtained from patent US10526316B2.
